Assay: M. tuberculosis growth inhibition, HTS (AID 1259417);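 note: bacteria grown with compound for 5 days at 37 °C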
Settings: M. tuberculosis DsRed fluorescence growth inhibition; active compounds read high; concentration not given here
The campaign covered roughly 1,100 compounds. About 760 (69%) were called active. The set was probably picked from earlier hits. The list shows a part of the results.
Label MET when inhibition is at or above 90%; otherwise label NOT MET.

- COMPOUND: "CCC(C(=O)Nc1ccc(CC(=O)OC)cc1)c1ccccc1 (stereo unspecified)"
  ASSIGNED_LABEL: "NOT MET"
- COMPOUND: "COc1ccc(NC(=O)c2c(NC(=O)c3ccc([N+](=O)[O-])o3)sc3c2CCC3)cc1"
  ASSIGNED_LABEL: "MET"
- COMPOUND: "CCOC(=O)COc1ccc2c(C)c(-c3ccc(OC)c(OC)c3)c(=O)oc2c1"
  ASSIGNED_LABEL: "NOT MET"
- COMPOUND: "CN1CCC(O)(c2cccs2)C(C(=O)c2cccs2)C1 (stereo unspecified)"
  ASSIGNED_LABEL: "MET"
- COMPOUND: "O=C(CSc1nc2ccccc2c(=O)[nH]1)NCc1ccccc1"
  ASSIGNED_LABEL: "MET"
